Tested on: HEK293
run-description: Cytotoxic Profiling of Annotated Libraries Using Quantitative High-Throughput Screening (AID 1296008); further: on the % scale 0 is the no-effect control and ±100 the full control effect; nearly all actives have a fitted effect of over 60% in size
measurement-conditions: Five cell lines viability, CellTiter-Glo ATP luminescence, 48-72 h; active compounds read low
Inconclusive results are not listed.
This section presents molecules with their documented max response values.
Answer with a number only, understood to be in %.

molecule	system	measurement-kind	result-value
C/C=C1/[C@H](O[C@@H]2O[C@H](CO)[C@@H](O)[C@H](O)[C@H]2O)OC=C(C(=O)OC)[C@H]1CC(=O)OCCc1ccc(OC(=O)C[C@@H]2C(C(=O)OC)=CO[C@@H](O[C@@H]3O[C@H](CO)[C@@H](O)[C@H](O)[C@H]3O)/C2=C/C)cc1	HEK293	max response	-1.34

# query: max response | item `Cc1ccc(C)c(S(=O)(=O)n2cnc3ccccc32)c1` | system: HEK293 -10.9

Another molecule to check: `CC(C)=CCc1c(O)cc2oc3cc(C)cc(O)c3c2c1C` -2.32

Okay, and CC1CC(=O)[C@]2(O)C(C(=O)OCCc3ccc(O)c(O)c3)=CO[C@@H](O[C@@H]3O[C@H](CO)[C@@H](O)[C@H](O)[C@H]3O)[C@H]12 (some centres undefined) ? -8.88

Now this one: `C=C1C(=O)O[C@@H]2CC(C)=C([C@@H](C)CCCOC(C)=O)[C@@H](O)[C@H]12` 1.32

// repeat for `C=Cc1cc2oc(-c3ccc(O)c(F)c3)nc2cc1O` and report -3.32

What do you have for CCCCC(=O)N1c2ccccc2NC2=C(C(=O)CCC2)C1c1ccccc1Cl (centres undefined) ? -3.83

Continue with `C[C@]1(C2CCCC2)Cc2cc(OCC(=O)O)c(Cl)c(Cl)c2C1=O` 3.25

Please answer likewise for NC1=NC2(c3cc(NC(=O)c4ccc(F)cn4)ccc3F)COCC2CS1 (centres undefined) -14.7

Query COC(=O)C(CC1(O)c2ccccc2N2C(=O)C(C)(C)N(O)C21)n1cnc2ccccc2c1=O (centres undefined) next 3.97

Also C=C1C2CCC3C(CCC4[C@@]3(C)CCC[C@@]4(C)C(=O)O)(C2)[C@@H]1OC(=O)/C(C)=C\C (some centres undefined) ? -104

// next record C=C1[C@H]2CCC3[C@]4(C)CCC[C@@](C)(C(=O)O)C4CC[C@]3(C2)[C@H]1OC(C)=O (some centres undefined) 3.77

What do you get for `NC(=O)[C@H](Cc1ccccc1)NC(=O)[C@H](CCCN=C(N)N)NC(=O)C12CC3CC(CC(C3)C1)C2` ? -11.4

Moving on to the next molecule: CCCCS(=O)(=O)NC(Cc1ccc(OCCCCC2CCNCC2)cc1)C(=O)O (centres undefined) -14

Query C/C=C1/CC2C(=O)Nc3cc(O)c(OC)cc3C(=O)N2C1 (centres undefined) next 2.7

What do you have for `C/C=C/C=C/[C@@H]1O[C@](O)([C@H](CC)C(=O)NC/C=C/C=C(\C)[C@@H](OC)[C@@H](C)[C@@H]2O[C@H](/C=C/C=C/C=C(\C)C(=O)c3c(O)ccn(C)c3=O)[C@H](O)[C@@H]2O)[C@H](O)[C@H](O)C1(C)C` ? -2.35

Can you handle `COc1cc(CO)ccc1O[C@@H]1O[C@H](CO)[C@@H](O)[C@H](O)[C@H]1O` next? -18.7
